Source: patent US7994331B2

targetOfAssay: recombinant human liver GK (FLAG fusion protein) (Homo sapiens, UniProt P35557)
Sequence (P35557 1-466 isoform P35557-2): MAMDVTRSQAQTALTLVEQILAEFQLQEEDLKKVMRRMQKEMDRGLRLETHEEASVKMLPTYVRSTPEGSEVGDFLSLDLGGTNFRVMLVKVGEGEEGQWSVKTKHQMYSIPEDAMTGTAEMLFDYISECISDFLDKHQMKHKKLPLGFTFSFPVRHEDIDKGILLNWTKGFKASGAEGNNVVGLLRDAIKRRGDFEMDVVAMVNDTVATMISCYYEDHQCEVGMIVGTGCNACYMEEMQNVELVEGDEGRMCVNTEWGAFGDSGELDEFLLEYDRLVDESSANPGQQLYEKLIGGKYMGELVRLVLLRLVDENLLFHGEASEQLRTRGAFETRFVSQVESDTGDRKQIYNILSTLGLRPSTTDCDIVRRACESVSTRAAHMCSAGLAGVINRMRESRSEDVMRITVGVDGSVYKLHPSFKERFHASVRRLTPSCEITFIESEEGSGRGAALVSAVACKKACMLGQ
assayText: Glucokinase (GK) activation assay, G6PDH-coupled Thio-NADH absorbance at 405 nm
details: GK activation; final glucose concentration 2.5 mM; 30° C.
metric: EC50 (µM)
Hi! Could you send only the number? It should be in µM, unit omitted.

1. CCS(=O)(=O)c1ccc(Oc2cc3[nH]c(-c4ccccn4)nc3cc2C2OCCO2)cc1 [Example 1]; 1.18
2. Cc1nc(-c2ccc(Oc3cc4[nH]c(-c5ccccn5)nc4cc3C3CCCO3)cn2)no1 (stereo not drawn) [Example 17]; 1.4
3. CCS(=O)(=O)c1ccc(Oc2cc3[nH]c(-c4cnccn4)nc3cc2C2CCC(=O)O2)cc1 (stereo not drawn) [Example 23]; 1.42
4. CCS(=O)(=O)c1ccc(Oc2cc3[nH]c(-c4ccccn4)nc3cc2C2OC(=O)N(C)C2=O)cc1 (stereo not drawn) [Example 31]; 1.58
5. CCS(=O)(=O)c1ccc(Oc2cc3[nH]c(-c4ccccn4)nc3cc2C2CCCS2)cc1 (stereo not drawn) [Example 29-1]; 0.6

[ask] Any idea what its EC50 is? The compound is CCS(=O)(=O)c1ccc(Oc2cc3[nH]c(-c4ccccn4)nc3cc2C2CCOC2=O)cc1 (stereo not drawn) [Example 36]
[reply] 0.88
